experimental_system: Calmodulin-1 (Homo sapiens) (UniProt P0DP23)
method_description: CALM1 binders on microarrays, EGTA buffer, profiling panel, biochemical, small-molecule microarray, Cy5-labelled CALM1 (AID 1111);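 further: labelled calmodulin applied in Tris saline Tween buffer holding calcium plus EGTA and DTT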
test_parameters: Cy5-CALM1 binding fluorescence, higher = more signal
Assignment: determine reported composite z-score for the given compounds.
One number for each entry.

// known answers, use as guide
O=C1O[C@H](c2ccccc2)[C@H](c2ccccc2)N2[C@H]1[C@@H](C(=O)N1CCCCCCC1)[C@]1(C(=O)Nc3ccc(C#CC4(O)CCCCCC4)cc31)[C@H]2c1ccccc1OCCO	3.09
COCCCNC(=O)[C@@]1(c2ccc([N+](=O)[O-])cc2)CC(=O)N(CC23CC4CC(CC(C4)C2)C3)[C@@H]1c1ccc(CO)cc1I	0.425
[N-]=[N+]=Nc1ccccc1C[C@]1(C(=O)NCc2ccccc2)COC(c2ccc(OCCCO)cc2)=N1	0.575
CC1CC/C=C\[C@H]2OC34C=CCN(CCN5CCOCC5)C(=O)[C@H]3N(C(C)CO)C(=O)[C@@H]4C2C(=O)O1 (some centres not stated)	-0.666
COc1ccc([Si](C)(C)[C@H]2[C@H](CCO)O[C@@]3(C(=O)N(Cc4ccccc4)c4ccc(N5CCOC5=O)cc43)[C@@H]2C)cc1	0.284

Please go through the list and note composite z-score for each compound.
1. C=C(CCCC)/C(=C/C[C@H](OC(C)=O)c1ccc(OCCO)cc1)c1cc(C(=O)OC)ccc1OC
2. CCOC(=O)C[C@H]1[C@H](OC(=O)c2ccc(C(=O)c3ccccc3)cc2)[C@@H](NC(=O)CC(C)C)c2cc(OCCCO)ccc2N1C(=O)Cc1ccc(OC)cc1

[0.142, 1.19]
